Source: ChEMBL document CHEMBL1155632

system: Candida albicans; assay: Antifungal activity against Candida albicans ATCC 32354; assay type: functional, organism-based
The source made the active and inactive calls. No cut-off for these calls is given here.
observation_type: Activity

* C/C(C=O)=C1\C(=O)C[C@]1(C)[C@H]1CC(C)(C)CC1=O | inactive
* CC1(C)C[C@H]2[C@@H](CC[C@@]2(C)O)[C@]2(C)CC2[C@H]1OC(=O)c1cc([N+](=O)[O-])cc([N+](=O)[O-])c1 (some centres undefined) | inactive
* C/C(CO)=C1\[C@@H](O)C[C@]1(C)[C@H]1CC(C)(C)C[C@@H]1O | inactive
* C/C(C=O)=C1\[C@@H](O)C[C@]1(C)[C@H]1CC(C)(C)C[C@@H]1O | inactive
